Data provenance is patent US12473352.

TGT: T1, human IFP35 protein (human, UniProt P80217 1-286, limits assumed)
T1 construct: also called interferon-induced protein 35; IFI35
T1 chain: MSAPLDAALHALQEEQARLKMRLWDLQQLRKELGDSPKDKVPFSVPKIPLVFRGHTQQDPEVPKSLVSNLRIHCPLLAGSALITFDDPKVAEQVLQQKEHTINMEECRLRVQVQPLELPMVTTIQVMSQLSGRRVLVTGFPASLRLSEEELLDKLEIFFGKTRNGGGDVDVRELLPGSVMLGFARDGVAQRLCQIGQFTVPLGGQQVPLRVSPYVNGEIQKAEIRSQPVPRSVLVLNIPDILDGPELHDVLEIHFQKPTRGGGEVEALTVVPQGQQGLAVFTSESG
RUN_DESCRIPTION: affinity kinetics (fortebio), antibody loaded
The reader will find reported kon values listed item by item below.
Express your answer in M⁻¹ s⁻¹, writing the number without its unit.

Please review the entries below; each comes with its answer.
[
  {
    "BINDER": "AE001-9 (antibody, human IgG1, V domains shown, Human IgG1; CDR mutant of AE001-H3+L3; also called AE001-6Hc + 9Lc; AE001-6HC + 9LC) VH: QVQLVQSGAEVKKPGASVKVSCKASGYTFTNYGMNWVRQAPGQGLEWMGWINTYTGEPTVAQKFQGRFTFTLDTSTSTAYLELSSLRNEDTAVYFCARYGYSWAMDYWGQGTSVTVSS VL: DIQMTQSPSSLSASVGDRVTITCQASSSVSYMHWYQQKPGKAPKRLIYDTSKLASGVPSRFSGSGSGTDYTLTISSLQPEDIATYYCQQWSPRPPITFGAGTKLEIK",
    "OBSERVED": 149000
  },
  {
    "BINDER": "AE001-7 (antibody, human IgG1, V domains shown, Human IgG1; CDR mutant of AE001-H3+L3; also called AE001-6Hc + 7Lc; AE001-6HC + 7LC) VH: QVQLVQSGAEVKKPGASVKVSCKASGYTFTNYGMNWVRQAPGQGLEWMGWINTYTGEPTVAQKFQGRFTFTLDTSTSTAYLELSSLRNEDTAVYFCARYGYSWAMDYWGQGTSVTVSS VL: DIQMTQSPSSLSASVGDRVTITCQASSSVSYMHWYQQKPGKAPKRLIYDTSKLASGVPSRFSGSGSGTDYTLTISSLQPEDIATYYCQQWSSNSWSTFGAGTKLEIK",
    "OBSERVED": 151000
  }
]

Next item in the queue.
Entry under test: AE001-6 (antibody, human IgG1, V domains shown, Human IgG1; CDR mutant of AE001-H3+L3; also called AE001-6Hc + Lc; AE001-6HC + LC) VH: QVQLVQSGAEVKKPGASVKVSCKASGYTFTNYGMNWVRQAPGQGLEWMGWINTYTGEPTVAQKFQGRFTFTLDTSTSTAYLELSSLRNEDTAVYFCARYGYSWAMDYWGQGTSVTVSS VL: DIQMTQSPSSLSASVGDRVTITCQASSSVSYMHWYQQKPGKAPKRLIYDTSKLASGVPSRFSGSGSGTDYTLTISSLQPEDIATYYCQQWSPYPPITFGAGTKLEIK . Its kon was 152000
